- Test system: 454973-116-R2-J3-PDC complex spheroid viability
- PROCEDURE DETAILS: Anticancer human tumor 454973-116-R2-J3-PDC patient-derived pancreatic carcinoma cell line growth inhibition [POLQ]; active = viability on the fitted dose curve at most 10% of control; inactive = the rest
- EXPERIMENTAL PARAMETERS: second compound 3.16 µM; first compound 0.1 µM
Respond only with the outcome that fits, drawn from active, inactive

[[record]]
compound = "COc1cccc(OCCCN)c1-c1cc(Nc2cnc(C#N)cn2)n[nH]1 + Cc1cccc(N(C)C(=O)C2C(O)CCN2c2nc(C)cc(C(F)(F)F)c2C#N)c1"
class_label = "active"

[[record]]
compound = "COc1cc(C2c3cc4c(cc3C(OC3OC5COC(C)OC5C(O)C3O)C3COC(=O)C23)OCO4)cc(OC)c1O (stereo not given) + Nc1ccc(C#CCN(C(=O)Cc2ncc(C(F)(F)F)cc2C(F)(F)F)c2ccc(F)cc2)nn1"
class_label = "inactive"

[[record]]
compound = "COc1cc(C2c3cc4c(cc3C(OC3OC5COC(C)OC5C(O)C3O)C3COC(=O)C23)OCO4)cc(OC)c1O (stereo not given) + COC1C(OC(N)=O)C(O)C(Oc2ccc3c(O)c(NC(=O)c4ccc(O)c(CC=C(C)C)c4)c(=O)oc3c2C)OC1(C)C"
class_label = "inactive"

[[record]]
compound = "CC(C)n1c(=O)n(C)c2cnc3cc(F)c(-c4ccc(OCCCN5CCCCC5)nc4)cc3c21 + Nc1ccc(C#CCN(C(=O)Cc2ncc(C(F)(F)F)cc2C(F)(F)F)c2ccc(F)cc2)nn1"
class_label = "inactive"

[[record]]
compound = "CCc1cc2c(N3CCc4c(cc(Cn5ccnc5)cc4-c4cn(C)nc4C(F)(F)F)C3=O)ccnc2c(OC)n1 + COC1C(OC(N)=O)C(O)C(Oc2ccc3c(O)c(NC(=O)c4ccc(O)c(CC=C(C)C)c4)c(=O)oc3c2C)OC1(C)C"
class_label = "inactive"

[[record]]
compound = "CC1COCCN1c1cc(-c2ccnn2C)c2ccnc(-c3ccn[nH]3)c2n1 (stereo not given) + Cc1cccc(N(C)C(=O)C2C(O)CCN2c2nc(C)cc(C(F)(F)F)c2C#N)c1"
class_label = "inactive"

[[record]]
compound = "CC1COCCN1c1cc(C2(O)CC3CCC(C2)O3)c2cnn(-c3ccn[nH]3)c2n1 (stereo not given) + Cc1cccc(N(C)C(=O)C2C(O)CCN2c2nc(C)cc(C(F)(F)F)c2C#N)c1"
class_label = "inactive"

[[record]]
compound = "CC1COCCN1c1cc(C2(O)CC3CCC(C2)O3)c2cnn(-c3ccn[nH]3)c2n1 (stereo not given) + Nc1ccc(C#CCN(C(=O)Cc2ncc(C(F)(F)F)cc2C(F)(F)F)c2ccc(F)cc2)nn1"
class_label = "inactive"

[[record]]
compound = "C=CCn1c(=O)c2cnc(Nc3ccc(N4CCN(C)CC4)cc3)nc2n1-c1cccc(C(C)(C)O)n1 + Nc1ccc(C#CCN(C(=O)Cc2ncc(C(F)(F)F)cc2C(F)(F)F)c2ccc(F)cc2)nn1"
class_label = "inactive"


Per the assay record, what outcome was assigned to COc1cccc(OCCCN)c1-c1cc(Nc2cnc(C#N)cn2)n[nH]1 + COC1C(OC(N)=O)C(O)C(Oc2ccc3c(O)c(NC(=O)c4ccc(O)c(CC=C(C)C)c4)c(=O)oc3c2C)OC1(C)C ?
active

---

- Tested on: 454973-116-R2-J3-PDC complex spheroid viability
- PROCEDURE DETAILS: Anticancer human tumor 454973-116-R2-J3-PDC cell line growth inhibition [POLQ];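 note: spheroids exposed to drugs for seven days before measurement; percent viability relative to DMSO vehicle control wells taken as 100%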
- EXPERIMENTAL PARAMETERS: second compound 10 µM; first compound 0.01 µM; stronger effect = lower value
- Description: Multicellular complex tumor spheroid response to Polymerase (POL) inhibitors (novobiocin, ART-558, RP6685) in combination with a variety of drugs and investigational agents in selected tumor cell lines The POL inhibitors (novobiocin, ART-558, and RP6685) were evaluated both individually and in combination with standard of care and investigational anticancer small molecules within a complex spheroid model of solid tumors. . […]
Rule: viability, T/C below 80% gives yes (1), anything at or above gives no (0).

[[record]]
compound = "Cn1ncnc1[C@H]1c2n[nH]c(=O)c3cc(F)cc(c23)N[C@@H]1c1ccc(F)cc1 + Nc1ccc(C#CCN(C(=O)Cc2ncc(C(F)(F)F)cc2C(F)(F)F)c2ccc(F)cc2)nn1"
class_label = "no (0)"

[[record]]
compound = "CC[C@@]1(O)C(=O)OCc2c1cc1n(c2=O)Cc2cc3c(CN(C)C)c(O)ccc3nc2-1 + COC1C(OC(N)=O)C(O)C(Oc2ccc3c(O)c(NC(=O)c4ccc(O)c(CC=C(C)C)c4)c(=O)oc3c2C)OC1(C)C"
class_label = "yes (1)"

[[record]]
compound = "COc1cccc(OCCCN)c1-c1cc(Nc2cnc(C#N)cn2)n[nH]1 + COC1C(OC(N)=O)C(O)C(Oc2ccc3c(O)c(NC(=O)c4ccc(O)c(CC=C(C)C)c4)c(=O)oc3c2C)OC1(C)C"
class_label = "yes (1)"

[[record]]
compound = "C=CCn1c(=O)c2cnc(Nc3ccc(N4CCN(C)CC4)cc3)nc2n1-c1cccc(C(C)(C)O)n1 + COC1C(OC(N)=O)C(O)C(Oc2ccc3c(O)c(NC(=O)c4ccc(O)c(CC=C(C)C)c4)c(=O)oc3c2C)OC1(C)C"
class_label = "no (0)"

[[record]]
compound = "CCc1c2c(nc3ccc(O)cc13)-c1cc3c(c(=O)n1C2)COC(=O)[C@]3(O)CC + Nc1ccc(C#CCN(C(=O)Cc2ncc(C(F)(F)F)cc2C(F)(F)F)c2ccc(F)cc2)nn1"
class_label = "yes (1)"


In the record for Cn1ncnc1[C@H]1c2n[nH]c(=O)c3cc(F)cc(c23)N[C@@H]1c1ccc(F)cc1 + Cc1cccc(N(C)C(=O)C2C(O)CCN2c2nc(C)cc(C(F)(F)F)c2C#N)c1 , is viability, T/C less than 80%?
no (0)

In the record for CC[C@@]1(O)C(=O)OCc2c1cc1n(c2=O)Cc2cc3c(CN(C)C)c(O)ccc3nc2-1 + Cc1cccc(N(C)C(=O)C2C(O)CCN2c2nc(C)cc(C(F)(F)F)c2C#N)c1 , is viability, T/C less than 80%?
no (0)

In the record for COc1cccc(OCCCN)c1-c1cc(Nc2cnc(C#N)cn2)n[nH]1 + Nc1ccc(C#CCN(C(=O)Cc2ncc(C(F)(F)F)cc2C(F)(F)F)c2ccc(F)cc2)nn1 , is viability, T/C less than 80%?
yes (1)

In the record for CCc1c2c(nc3ccc(O)cc13)-c1cc3c(c(=O)n1C2)COC(=O)[C@]3(O)CC + COC1C(OC(N)=O)C(O)C(Oc2ccc3c(O)c(NC(=O)c4ccc(O)c(CC=C(C)C)c4)c(=O)oc3c2C)OC1(C)C , is viability, T/C less than 80%?
yes (1)

In the record for Cn1ncnc1[C@H]1c2n[nH]c(=O)c3cc(F)cc(c23)N[C@@H]1c1ccc(F)cc1 + COC1C(OC(N)=O)C(O)C(Oc2ccc3c(O)c(NC(=O)c4ccc(O)c(CC=C(C)C)c4)c(=O)oc3c2C)OC1(C)C , is viability, T/C less than 80%?
no (0)

In the record for C=CCn1c(=O)c2cnc(Nc3ccc(N4CCN(C)CC4)cc3)nc2n1-c1cccc(C(C)(C)O)n1 + Cc1cccc(N(C)C(=O)C2C(O)CCN2c2nc(C)cc(C(F)(F)F)c2C#N)c1 , is viability, T/C less than 80%?
no (0)

In the record for COc1cccc(OCCCN)c1-c1cc(Nc2cnc(C#N)cn2)n[nH]1 + Cc1cccc(N(C)C(=O)C2C(O)CCN2c2nc(C)cc(C(F)(F)F)c2C#N)c1 , is viability, T/C less than 80%?
yes (1)

In the record for C=CCn1c(=O)c2cnc(Nc3ccc(N4CCN(C)CC4)cc3)nc2n1-c1cccc(C(C)(C)O)n1 + Nc1ccc(C#CCN(C(=O)Cc2ncc(C(F)(F)F)cc2C(F)(F)F)c2ccc(F)cc2)nn1 , is viability, T/C less than 80%?
no (0)

In the record for CC[C@@]1(O)C(=O)OCc2c1cc1n(c2=O)Cc2cc3c(CN(C)C)c(O)ccc3nc2-1 + Nc1ccc(C#CCN(C(=O)Cc2ncc(C(F)(F)F)cc2C(F)(F)F)c2ccc(F)cc2)nn1 , is viability, T/C less than 80%?
no (0)

In the record for CCc1c2c(nc3ccc(O)cc13)-c1cc3c(c(=O)n1C2)COC(=O)[C@]3(O)CC + Cc1cccc(N(C)C(=O)C2C(O)CCN2c2nc(C)cc(C(F)(F)F)c2C#N)c1 , is viability, T/C less than 80%?
yes (1)
